Origin of the recorded values: the supplement of paper PMC4862054

Measured normalised response by item
System: CAL-51
Test: normalised response (% of control), CellTox Green; higher = less cell death (100 = DMSO, 0 = benzethonium chloride kill control)
Conditions: incubation time: 72 h

# compound, unitAbbreviation, normalised response
data = [
    ("COc1cc2ncnc(Nc3ccc(F)c(Cl)c3)c2cc1OCCCN1CCOCC1 [Gefitinib] (10000 nM)", "%", 104),
    ("CO[C@H]1C[C@@H]2CC[C@@H](C)[C@@](O)(O2)C(=O)C(=O)N2CCCC[C@H]2C(=O)O[C@H]([C@H](C)C[C@@H]2CC[C@@H](OP(C)(C)=O)[C@H](OC)C2)CC(=O)[C@H](C)/C=C(\\C)[C@@H](O)[C@@H](OC)C(=O)[C@H](C)C[C@H](C)/C=C/C=C/C=C/1C [Ridaforolimus] (100 nM)", "%", 102),
    ("C=C1C[C@@H]2[C@H](CC[C@]3(C)C(=O)CC[C@@H]23)[C@@]2(C)C=CC(=O)C=C12 [Exemestane] (10000 nM)", "%", 103),
    ("COC(=O)c1ccc2c(c1)NC(=O)/C2=C(\\Nc1ccc(N(C)C(=O)CN2CCN(C)CC2)cc1)c1ccccc1 [Nintedanib] (100 nM)", "%", 109),
    ("Cc1[nH]c2ccccc2c1CCNCc1ccc(/C=C/C(=O)NO)cc1 [Panobinostat] (100 nM)", "%", -3.76),
    ("Oc1ccc2c(c1)CC[C@H](c1ccccc1)[C@@H]2c1ccc(OCCN2CCCC2)cc1 [Lasofoxifene] (1000 nM)", "%", 105),
    ("COc1cc(O)c2c(c1)/C=C/C[C@H](O)[C@H](O)C(=O)/C=C\\C[C@H](C)OC2=O [(5Z)-7-Oxozeaenol] (10000 nM)", "%", 45.5),
    ("CO[C@H]1C[C@@H]2CC[C@@H](C)[C@@](O)(O2)C(=O)C(=O)N2CCCC[C@H]2C(=O)O[C@H]([C@H](C)C[C@@H]2CC[C@@H](OP(C)(C)=O)[C@H](OC)C2)CC(=O)[C@H](C)/C=C(\\C)[C@@H](O)[C@@H](OC)C(=O)[C@H](C)C[C@H](C)/C=C/C=C/C=C/1C [Ridaforolimus] (10 nM)", "%", 110),
    ("O=C(Nc1ccncc1)C(=O)c1cn(Cc2ccc(Cl)cc2)c2ccccc12 [Indibulin] (100 nM)", "%", 100),
    ("Cc1cc(Nc2cc(CN3CCOCC3)c3nc(C)c(Cc4ccc(Cl)cc4F)n3n2)n[nH]1 [Gandotinib] (1000 nM)", "%", 71.4),
    ("Cc1ccc(NC(=O)c2ccc(CN3CCN(C)CC3)cc2)cc1Nc1nc(-c2cccnc2)cs1 [Masitinib] (1000 nM)", "%", 103),
    ("N#Cc1ccc(COC[C@H]2O[C@@H](n3c(NCc4ccc(Cl)c(Cl)c4)nc4c(N)ncnc43)[C@H](O)[C@@H]2O)cc1 (100 nM)", "%", 114),
    ("CN(C)c1nc(N(C)C)nc(N(C)C)n1 [Altretamine] (100 nM)", "%", 109),
    ("CCOC(=O)CCNc1cc(N2CCc3ccccc3CC2)nc(-c2ccccn2)n1 [GSK-J4] (10000 nM)", "%", 52.1),
    ("CC(C)C[C@@H](C(=O)N[C@H](C(=O)OC1CCCC1)c1ccccc1)[C@H](O)C(=O)NO [Tosedostat] (1000 nM)", "%", 52.9),
    ("Oc1ccc2c(c1)CC[C@H](c1ccccc1)[C@@H]2c1ccc(OCCN2CCCC2)cc1 [Lasofoxifene] (100 nM)", "%", 123),
    ("O=C(/C=C/c1cccc(S(=O)(=O)Nc2ccccc2)c1)NO [Belinostat] (10000 nM)", "%", -15.2),
    ("Nc1cc(C(F)(F)F)c(-c2cc(N3CCOCC3)nc(N3CCOCC3)n2)cn1 [Buparlisib] (1000 nM)", "%", 107),
    ("CCc1c2c(nc3ccc(OC(=O)N4CCC(N5CCCCC5)CC4)cc13)-c1cc3c(c(=O)n1C2)COC(=O)[C@]3(O)CC [Irinotecan] (1000 nM)", "%", 61.9),
    ("O=C(Nc1cccnc1)N1CCC(Cc2cccc(Oc3ccc(C(F)(F)F)cn3)c2)CC1 [PF-3845] (1000 nM)", "%", 117),
    ("O=C(/C=C/c1cccc(S(=O)(=O)Nc2ccccc2)c1)NO [Belinostat] (100 nM)", "%", 83.8),
    ("S=P(N1CC1)(N1CC1)N1CC1 [Thio-TEPA] (500 nM)", "%", 113),
    ("CCn1c(-c2nonc2N)nc2cnc(Oc3cccc(NC(=O)c4ccc(OCCN5CCOCC5)cc4)c3)cc21 (1000 nM)", "%", 79.7),
    ("COc1cc(OC2CCN(C)CC2)ccc1Nc1ncc2c(n1)n(C1CCCC1)c(=O)n2C [AZ 3146] (10000 nM)", "%", 27.1),
    ("CNC(=O)c1cc(Oc2ccc(NC(=O)Nc3ccc(Cl)c(C(F)(F)F)c3)c(F)c2)ccn1 [Regorafenib] (10000 nM)", "%", 108),
]
